Recorded values, source the supplement of paper PMC10567573.

B1: WEE1 (parent)
chain: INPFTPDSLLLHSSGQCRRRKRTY

- Variants of: B1
- METHOD_DESCRIPTION: protein stability index of a GFP-peptide fusion (GPS, HEK-293T) (PSI 1-6); higher = more stable;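 further: lentivirally expressed fusions sorted by FACS into six bins by GFP to DsRed ratio, PSI derived from sequencing read proportions per bin multiplied by bin number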
- CONDITION_SET: c terminus: a fixed tail appended
Answer each item with its documented protein stability index.
Returns: the value as a bare number; no unit string appended.

Q: Give the measured protein stability index for D7P
Ans: 3.09

Q: Give the measured protein stability index for P3M
Ans: 2.99

Q: Give the measured protein stability index for K21I
Ans: 3

Q: Give the measured protein stability index for R20A
Ans: 3.08

Q: Give the measured protein stability index for R20S
Ans: 2.97

Q: Give the measured protein stability index for R22L
Ans: 2.92
